Attribution: paper PMC6858373

I'd appreciate it if you could supply Split Luciferase Assay Z-score Set 2 values for the items below.
Target: FGF14:Nav1.6 C-tail complex (Homo sapiens, UniProt Q92915+Q9UQD0)
Construct: polymerase chain reaction (PCR) amplification of the FGF14 open reading frame (nt 1–855); C-terminal fragment of Nav1.6 (amino acids 1763–1976) fused with CD4ΔC-tail (amino acids 1–395); expressed in transfected cells
Sequence (Q92915 1-252 isoform Q92915-2): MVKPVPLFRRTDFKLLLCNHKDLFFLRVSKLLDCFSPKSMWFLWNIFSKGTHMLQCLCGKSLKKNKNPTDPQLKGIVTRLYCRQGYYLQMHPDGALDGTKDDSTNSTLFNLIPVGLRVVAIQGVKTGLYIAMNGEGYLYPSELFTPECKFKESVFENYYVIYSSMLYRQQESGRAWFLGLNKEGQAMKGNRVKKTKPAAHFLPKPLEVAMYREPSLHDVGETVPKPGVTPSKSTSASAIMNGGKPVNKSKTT
Sequence (Q9UQD0 1763-1976 limits assumed): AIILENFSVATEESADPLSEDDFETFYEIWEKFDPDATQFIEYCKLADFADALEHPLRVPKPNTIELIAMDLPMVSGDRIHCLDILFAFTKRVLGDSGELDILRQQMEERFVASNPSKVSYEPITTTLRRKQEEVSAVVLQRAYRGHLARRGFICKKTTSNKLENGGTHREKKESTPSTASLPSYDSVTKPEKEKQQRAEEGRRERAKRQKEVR
Assay: Split-luciferase complementation assay (LCA) in Clone V double stable HEK293 cells
Assay type: cell-based
Conditions: CC_NCI screening; LCA, biological replicate Set 2; normalized to on-plate 0.3% DMSO controls
Answers are plain numbers.

Requested read-out: Split Luciferase Assay Z-score Set 2. Entry: CN(C)S(=O)(=O)c1ccc2c(c1)/C(=C/c1cc3c([nH]1)CCCC3)C(=O)N2 [SU 6656]
0.50

Lookup NC1(c2ccc(-c3nc4ccn5c(=O)[nH]nc5c4cc3-c3ccccc3)cc2)CCC1 [MK-2206]
-4.24

Now consider the entry below.
Requested read-out: Split Luciferase Assay Z-score Set 2. Entry: C=CC[C@@H]1/C=C(\C)C[C@H](C)C[C@H](OC)[C@H]2O[C@@](O)(C(=O)C(=O)N3CCCC[C@H]3C(=O)O[C@H](/C(C)=C/[C@@H]3CC[C@@H](O)[C@H](OC)C3)[C@H](C)[C@@H](O)CC1=O)[C@H](C)C[C@@H]2OC [FK-506]
-0.69

* * *

I'd appreciate it if you could supply Split Luciferase Assay %Lum Set 2 values for the items below.
Target: FGF14:Nav1.6 C-tail complex (Homo sapiens, UniProt Q92915+Q9UQD0)
Construct: polymerase chain reaction (PCR) amplification of the FGF14 open reading frame (nt 1–855); C-terminal fragment of Nav1.6 (amino acids 1763–1976) fused with CD4ΔC-tail (amino acids 1–395); expressed in transfected cells
Experiment: Split-luciferase complementation assay (LCA) in Clone V double stable HEK293 cells
Assay type: cell-based
Settings: CC_NCI screening; LCA luminescence, biological replicate Set 2; normalized to on-plate 0.3% DMSO controls (n=16 per plate)
Numbers only, in %.

Some solved cases for reference:
Requested read-out: Split Luciferase Assay %Lum Set 2. Entry: O=C(Nc1cccc(Nc2ncc(Br)c(NCCc3cnc[nH]3)n2)c1)N1CCCC1 [BX 912, reference compound]
40.57

Lookup Clc1ccc(Nc2nnc(Cc3ccncc3)c3ccccc23)cc1
69.70

Please go through the list and note Split Luciferase Assay %Lum Set 2 for each molecule.
1. COc1nc(N)nc2c1ncn2[C@@H]1O[C@H](CO)[C@@H](O)[C@@H]1O
2. N#Cc1ccc(C(c2ccc(C#N)cc2)n2cncn2)cc1
3. O=[As]O[As]=O (centres unmarked) [Arsenic trioxide]
4. COc1cc2c(N3CCN(C(=O)Nc4ccc(OC(C)C)cc4)CC3)ncnc2cc1OCCCN1CCCCC1

[114.43, 115.47, 29.13, 92.59]

Please go through the list and note Split Luciferase Assay %Lum Set 2 for each molecule.
1. C[C@]12CC[C@H](O)CC1=CC[C@@H]1[C@@H]2CC[C@]2(C)C(c3cccnc3)=CC[C@@H]12
2. COC1=CC(c2cc3ccccc3[nH]2)=N/C1=C\c1[nH]c(C)cc1C
3. COc1ccc2c(c1)CC[C@@H]1[C@@H]2CC[C@]2(C)[C@@H](NCCCCCCN3C(=O)C=CC3=O)CC[C@@H]12

[148.76, 61.38, 129.00]
